# System: HCT116
# PROCEDURE_TEXT: Cytotoxicity, sulforhodamine B (SRB) assay, HCT116
# Assay type: cell-based, human
# RUN_PARAMETERS: Homo sapiens, HCT-116, HCT116, Colon, 48 h
Each item that follows carries a reported IC50.
PARAMETER_MEASURED: IC50

>>> value("COCCOCCOCCOCCOCCOCCOCCOCCOCCOCC(COCC(COCC(CN1CCN(CCCN2c3ccccc3Sc3ccc(C(F)(F)F)cc32)CC1)OC)OC)OC (stereo not drawn) [Compound 26-2b, NDT-[CH2CH(OCH3)CH2O]3—[CH2CH2O]n—CH3]")
"8.9 µM"
>>> value("COCCOCCOCCOCC(COCC(COCC(CN1CCN(CCCN2c3ccccc3Sc3ccc(Cl)cc32)CC1)OC)OC)OC (stereo not drawn) [Compound 26-1a, NDP-[CH2CH(OCH3)CH2O]3—[CH2CH2O]n—CH3]")
"11.2 µM"
>>> value("COCC(COCC(COCC(COCCOCCOCCN1CCN(CCCN2c3ccccc3Sc3ccc(C(F)(F)F)cc32)CC1)OC)OC)OC (stereo not drawn) [Compound 25-1b, NDT-[CH2CH2O]n—[CH2CH(OCH3)CH2O]3—CH3]")
"7.2 µM"
>>> value("OCC(O)COCC(O)COCC(O)CN1CCN(CCCN2c3ccccc3Sc3ccc(C(F)(F)F)cc32)CC1 (stereo not drawn) [Compound 33b, NDT-[CH2CH(OH)CH2O]3—H]")
"14.9 µM"
>>> value("COCCOCCOCCOCCOCCOCCOCCOCCOCCOCC(COCC(COCC(CN1CCN(CCCN2c3ccccc3Sc3ccc(Cl)cc32)CC1)OC)OC)OC (stereo not drawn) [Compound 26-2a, NDP-[CH2CH(OCH3)CH2O]3—[CH2CH2O]n—CH3]")
"13.3 µM"
>>> value("COCCOCCOCCOCC(COCC(COCC(CN1CCN(CCCN2c3ccccc3Sc3ccc(C(F)(F)F)cc32)CC1)OC)OC)OC (stereo not drawn) [Compound 26-1b, NDT-[CH2CH(OCH3)CH2O]3—[CH2CH2O]n—CH3]")
"8.5 µM"
>>> value("OCC(O)COCC(O)COCC(O)CN1CCN(CCCN2c3ccccc3Sc3ccc(Cl)cc32)CC1 (stereo not drawn) [Compound 33a, NDP-[CH2CH(OH)CH2O]3—H]")
"20.2 µM"
>>> value("COCC(COCC(COCC(CN1CCN(CCCN2c3ccccc3Sc3ccc(C(F)(F)F)cc32)CC1)OC)OC)OC (stereo not drawn) [Compound 24b, NDT-[CH2CH(OCH3)CH2O]3—CH3]")
"5.9 µM"
>>> value("COCC(COCC(COCC(COCCOCCOCCOCCOCCOCCOCCOCCOCCN1CCN(CCCN2c3ccccc3Sc3ccc(C(F)(F)F)cc32)CC1)OC)OC)OC (stereo not drawn) [Compound 25-2b, NDT-[CH2CH2O]n—[CH2CH(OCH3)CH2O]3—CH3]")
"11.4 µM"

---

# Tested on: H441GL
# PROCEDURE_TEXT: Cytotoxicity, sulforhodamine B (SRB) assay, H441GL
# Type: cell-based, Human
# RUN_PARAMETERS: 48 h, NA indicates no activity
Lab note - cut at 10 µM for IC50: condition met if strictly below, condition not met if not.

>>> label_class("COCCOCCOCCOCCOCCOCCOCCOCCOCCOCCOCCOCCOC(=O)N1CCN(CCCN2c3ccccc3Sc3ccc(Cl)cc32)CC1 [Compound 5-3a, NDP-CO—O—[CH2CH2O]12—CH3]")
"condition met"
>>> label_class("COCCOCCOCCOCCOCCOCCOCCOCCOCCOCCOCCOCCOCCOCCOCCOCCOC(=O)N1CCN(CCCN2c3ccccc3Sc3ccc(C(F)(F)F)cc32)CC1 [Compound 5-4b, NDT-CO—O—[CH2CH2O]16—CH3]")
"condition not met"
>>> label_class("COCCOCCOCCOCCOCCOCCN1CCN(CCCN2c3ccccc3Sc3ccc(Cl)cc32)CC1")
"condition met"
>>> label_class("COCCOCCOCCOC(=O)N1CCN(CCCN2c3ccccc3Sc3ccc(C(F)(F)F)cc32)CC1 [Compound 5-1b, NDT-CO—O—[CH2CH2O]3—CH3]")
"condition met"
>>> label_class("COCCOCCOCCOCCOCCOCCOCCOCCOCCOCCOCCOCCN1CCN(CCCN2c3ccccc3Sc3ccc(Cl)cc32)CC1")
"condition not met"
>>> label_class("COCCOCCOCCN1CCN(CCCN2c3ccccc3Sc3ccc(C(F)(F)F)cc32)CC1")
"condition not met"
